Quantity: melting point

Worked cases, melting point given:
[
  {
    "Molecule": "O=C1C=C(CCCCCCCCCCCCO)CCC1 [Preparation Example 3, 3-(12-hydroxydodecyl)-2-cyclohexen-1-one]",
    "melting point": "35 to 36 °C"
  },
  {
    "Molecule": "O=C1C=C(CCCCCCCCCCCCCO)CCC1",
    "melting point": "42 to 43 °C"
  },
  {
    "Molecule": "O=C1C=C(CCCCCCCCCCCO)CCC1 [Preparation Example 2, 3-(11-hydroxyundecyl)-2-cyclohexen-1-one]",
    "melting point": "34 to 35 °C"
  }
]

Find the recorded melting point belonging to O=C1C=C(CCCCCCCCCCCCCCO)CCC1 and report it.
44 to 45 °C
